Biological target: human recombinant PLK4 (Homo sapiens (Human), UniProt O00444)
Sequence (O00444 whole entry): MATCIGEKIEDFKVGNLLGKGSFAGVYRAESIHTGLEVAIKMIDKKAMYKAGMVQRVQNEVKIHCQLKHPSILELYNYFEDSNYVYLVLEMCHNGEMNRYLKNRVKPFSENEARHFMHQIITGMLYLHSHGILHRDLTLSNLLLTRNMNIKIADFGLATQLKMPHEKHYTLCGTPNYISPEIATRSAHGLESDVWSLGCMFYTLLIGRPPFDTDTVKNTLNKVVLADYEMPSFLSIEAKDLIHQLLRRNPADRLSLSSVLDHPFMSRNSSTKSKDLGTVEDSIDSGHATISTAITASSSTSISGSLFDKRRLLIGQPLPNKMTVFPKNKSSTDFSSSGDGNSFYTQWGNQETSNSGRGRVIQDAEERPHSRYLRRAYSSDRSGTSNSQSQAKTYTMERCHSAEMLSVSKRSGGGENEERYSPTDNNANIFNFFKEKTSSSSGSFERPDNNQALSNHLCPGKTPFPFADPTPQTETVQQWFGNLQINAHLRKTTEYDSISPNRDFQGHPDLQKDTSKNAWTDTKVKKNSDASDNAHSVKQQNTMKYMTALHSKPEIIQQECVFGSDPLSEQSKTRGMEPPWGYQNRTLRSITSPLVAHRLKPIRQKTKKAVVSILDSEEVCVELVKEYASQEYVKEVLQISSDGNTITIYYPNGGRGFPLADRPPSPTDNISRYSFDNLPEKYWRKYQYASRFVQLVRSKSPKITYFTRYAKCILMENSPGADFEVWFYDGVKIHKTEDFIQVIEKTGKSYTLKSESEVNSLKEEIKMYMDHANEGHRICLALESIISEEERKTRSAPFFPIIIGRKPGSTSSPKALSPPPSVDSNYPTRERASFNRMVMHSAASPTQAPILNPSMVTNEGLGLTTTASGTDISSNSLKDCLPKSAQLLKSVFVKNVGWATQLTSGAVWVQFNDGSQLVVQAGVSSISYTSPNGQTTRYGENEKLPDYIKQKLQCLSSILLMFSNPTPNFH
Assay: PLK4 Biochemical Assay (ADP-Glo)
Settings: 0.5 nM PLK4, 8.0 µM ATP, 4.7 µM MBP, 6 hours at RT
As shown below, each of these compounds has a reported pIC50 value.
// pIC50 here means minus log10 of the molar concentration (mol/L)

Examples from the recorded data:
compound="COc1ccc2c(c1)[C@]1(C[C@H]1c1ccc3c(Nc4nc(C#N)nc(N5CCS(=O)(=O)CC5)c4OC)n[nH]c3c1)C(=O)N2 [Example 62]" measured_endpoint=pIC50 observed_measurement=7.77
compound="COc1ccc2c(c1)[C@]1(C[C@H]1c1ccc3c(Nc4ccc(C(=O)N5CC6(COC6)C5)nc4OC)n[nH]c3c1)C(=O)N2 [Example 188]" measured_endpoint=pIC50 observed_measurement=8.20
compound="COc1ccc2c(c1)[C@]1(C[C@H]1c1ccc3c(Nc4cc(N5CCC5)ncn4)n[nH]c3c1)C(=O)N2 [Example 45]" measured_endpoint=pIC50 observed_measurement=7.81
compound="COc1ccc2c(c1)[C@]1(C[C@H]1c1ccc3c(Nc4nc(C#N)nc(N5CCOCC5)c4OC)n[nH]c3c1)C(=O)N2 [Example 61]" measured_endpoint=pIC50 observed_measurement=8.01
compound="COc1ccc2c(c1)[C@]1(C[C@H]1c1ccc3c(Nc4ncnc(N5CCOCC5)c4OC(F)F)n[nH]c3c1)C(=O)N2 [Example 109]" measured_endpoint=pIC50 observed_measurement=8.17

Query compound follows.
Enquiry: For the compound shown here, COc1ccc2c(c1)[C@]1(C[C@H]1c1ccc3c(Nc4nc(OC)ncc4C)n[nH]c3c1)C(=O)N2 [Example 187] , give the reported pIC50.
Return: 8.21

====

Target: human recombinant PLK4 (Homo sapiens (Human))
Assay: PLK4 Biochemical Assay (ADP-Glo)
Details: 0.5 nM PLK4, 8.0 µM ATP, 4.7 µM MBP, 6 hours at RT
Description: Activity of human recombinant PLK4 (ThermoFisher, cat #PV6396) was measured by quantification of adenosine diphosphate (ADP) using the ADP-Glo Kinase Assay Kit (Promega, cat #V9102). […] The simultaneous conversion of the remaining ADP to ATP and measurement of the newly synthesized ATP was achieved by addition of 20 µL Kinase Detection reagent (Promega, cat #V914B), incubation for 30 min at RT, and luminescence detection using the EnVision plate reader (PerkinElmer). […]
measured endpoint: pIC50
API: returns pIC50 as number; meaning -log10 of concentration in mol/L.

Known pIC50 results, listed for orientation:
compound="COc1ccc2c(c1)[C@]1(C[C@H]1c1ccc3c(Nc4ncnc(N5CC6(COC6)C5)c4Cl)n[nH]c3c1)C(=O)N2 [Example 132]" observed_measurement=8.67
compound="COc1ccc2c(c1)[C@]1(C[C@H]1c1ccc3c(Nc4ncc(C(=O)N(C)C)nc4OC)n[nH]c3c1)C(=O)N2 [Example 236]" observed_measurement=8.65
compound="COc1ccc2c(c1)[C@]1(C[C@H]1c1ccc3c(Nc4nc(N(C)C)ncc4C)n[nH]c3c1)C(=O)N2 [Example 182]" observed_measurement=8.35
compound="COc1ccc2c(c1)[C@]1(C[C@H]1c1ccc3c(Nc4cc(N5CCCOCC5)ncn4)n[nH]c3c1)C(=O)N2 [Example 40]" observed_measurement=7.82
compound="COc1ccc2c(c1)[C@]1(C[C@H]1c1ccc3c(Nc4ncncc4OC)n[nH]c3c1)C(=O)N2 [Example 4]" observed_measurement=8.40
compound="COc1ccc2c(c1)[C@]1(C[C@H]1c1ccc3c(Nc4ncncc4OC)n[nH]c3c1)C(=O)N2 (racemic) [Example 1]" observed_measurement=8.46
compound="COc1ccc2c(c1)[C@]1(C[C@H]1c1ccc3c(Nc4nc(N5CC(F)(F)C5)ncc4OC)n[nH]c3c1)C(=O)N2 [Example 173]" observed_measurement=8.57

Now turn to the next compound.
Enquiry: Any idea what pIC50 was measured for COc1ccc2c(c1)[C@]1(C[C@H]1c1ccc3c(Nc4ccc(C(=O)NNC(C)C)nc4OC)n[nH]c3c1)C(=O)N2 [Example 219] ?
Return: 8.60
